method: Unbound clearance in Sprague-Dawley rat at 0.5 mg/kg, iv by LC-MS method
Assay type: ADME, organism-based
test.parameters: in vivo
endpoint.label: log10(CL free) (log10 of the value in mL/min/kg)

[[record]]
smiles_str = "CNC(=O)c1c(-c2ccccc2)c([C@H](C)Nc2ncnc(N)c2C#N)nc2ccc(F)cc12"
recorded_measurement = 1.88

[[record]]
smiles_str = "CCNC(=O)c1c(-c2ccccn2)c([C@H](C)Nc2ncnc(N)c2C#N)nc2ccc(F)cc12"
recorded_measurement = 2.01

[[record]]
smiles_str = "C[C@H](Nc1ncnc(N)c1C#N)c1nc2ccc(F)cc2c(C(=O)N2CCNCC2)c1-c1ccccc1"
recorded_measurement = 3.00

[[record]]
smiles_str = "C[C@H](Nc1ncnc2[nH]cnc12)c1cc2ccc(F)cc2nc1-c1ccccn1"
recorded_measurement = 1.65

[[record]]
smiles_str = "CNC(=O)c1c(-c2ccccn2)c([C@H](C)Nc2ncnc(N)c2C#N)nc2ccc(F)cc12"
recorded_measurement = 1.58

[[record]]
smiles_str = "CNC(=O)c1c(-c2ccccn2)c([C@H](C)Nc2ncnc(N)c2C#N)nc2cccc(F)c12"
recorded_measurement = 1.83

[[record]]
smiles_str = "CNCCNC(=O)c1c(-c2ccccn2)c([C@H](C)Nc2ncnc(N)c2C#N)nc2ccc(F)cc12"
recorded_measurement = 2.67


----------
method: Clearance in Sprague-Dawley rat at 0.5 mg/kg, iv by LC-MS method
Format: ADME, organism-based
test.parameters: in vivo
endpoint.label: clearance

[[record]]
smiles_str = "C[C@H](Nc1ncnc2[nH]cnc12)c1cc2ccc(F)cc2nc1-c1ccccn1"
recorded_measurement = "5 mL/min/kg"

[[record]]
smiles_str = "CNC(=O)c1c(-c2ccccc2)c([C@H](C)Nc2ncnc(N)c2C#N)nc2ccc(F)cc12"
recorded_measurement = "8.33 mL/min/kg"

[[record]]
smiles_str = "CNC(=O)c1c(-c2ccccn2)c([C@H](C)Nc2ncnc(N)c2C#N)nc2ccc(F)cc12"
recorded_measurement = "8.33 mL/min/kg"

[[record]]
smiles_str = "C[C@H](Nc1ncnc(N)c1C#N)c1nc2ccc(F)cc2c(C(N)=O)c1-c1ccccc1"
recorded_measurement = "10 mL/min/kg"

[[record]]
smiles_str = "CNC(=O)c1c(-c2ccccn2)c([C@H](C)Nc2ncnc(N)c2C#N)nc2cccc(F)c12"
recorded_measurement = "11.7 mL/min/kg"


----------
method: Oral bioavailability in Sprague-Dawley rat at 2 mg/kg by LC-MS method
Format: ADME, organism-based
test.parameters: in vivo
Measured bioavailability of individual entries
endpoint.label: bioavailability (%)

[[record]]
molecule = "CNC(=O)c1c(-c2ccccn2)c([C@H](C)Nc2ncnc(N)c2C#N)nc2cccc(F)c12"
endpoint_label = "bioavailability"
recorded_measurement = 29

[[record]]
molecule = "C[C@H](Nc1ncnc2[nH]cnc12)c1cc2ccc(F)cc2nc1-c1ccccn1 [AMG-319]"
endpoint_label = "bioavailability"
recorded_measurement = 54

[[record]]
molecule = "CNC(=O)c1c(-c2ccccn2)c([C@H](C)Nc2ncnc(N)c2C#N)nc2ccc(F)cc12"
endpoint_label = "bioavailability"
recorded_measurement = 70


----------
method: Clearance in rat liver microsomes assessed as drug turnover level at 1 uM incubated for 30 mins in presence of NADPH
Assay type: ADME, Microsome
test.parameters: read-out: CLH
Measured microsomal CLint at 1 µM of individual entries
endpoint.label: microsomal CLint at 1 µM

[[record]]
smiles_str = "C[C@H](Nc1ncnc(N)c1C#N)c1nc2ccc(F)cc2c(C(N)=O)c1-c1ccccc1"
endpoint_label = "microsomal CLint at 1 µM"
recorded_measurement = "< 14 µL/min/mg"

[[record]]
smiles_str = "CCNC(=O)c1c(-c2ccccn2)c([C@H](C)Nc2ncnc(N)c2C#N)nc2ccc(F)cc12"
endpoint_label = "microsomal CLint at 1 µM"
recorded_measurement = "< 14 µL/min/mg"

[[record]]
smiles_str = "CNCCNC(=O)c1c(-c2ccccn2)c([C@H](C)Nc2ncnc(N)c2C#N)nc2ccc(F)cc12"
endpoint_label = "microsomal CLint at 1 µM"
recorded_measurement = "< 14 µL/min/mg"


Where these numbers come from: ChEMBL document CHEMBL4428047
